Collected activation at 100 µM values appear next to each entry.
# Measured target: Drosophila OR10a (Drosophila melanogaster)
# Construct: expressed in transfected cells
# Sequence (Q9VYZ1 whole entry, one chain of several): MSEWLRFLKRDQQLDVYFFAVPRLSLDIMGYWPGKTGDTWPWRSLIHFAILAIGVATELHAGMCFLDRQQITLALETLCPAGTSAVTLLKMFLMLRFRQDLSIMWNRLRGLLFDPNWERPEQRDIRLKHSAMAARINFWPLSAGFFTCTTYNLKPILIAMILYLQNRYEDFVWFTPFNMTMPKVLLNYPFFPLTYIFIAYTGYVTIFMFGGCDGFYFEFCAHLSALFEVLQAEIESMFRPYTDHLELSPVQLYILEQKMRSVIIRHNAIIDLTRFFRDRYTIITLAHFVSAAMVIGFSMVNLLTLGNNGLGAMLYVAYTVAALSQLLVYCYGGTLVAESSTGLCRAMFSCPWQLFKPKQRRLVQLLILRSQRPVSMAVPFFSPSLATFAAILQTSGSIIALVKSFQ
# Assay notes: Calcium ion fluorescence (GCaMP6) assay, OR10a stable HEK293 cell line
# Assay type: cell-based
# Applied conditions: HEK293, read-out: OR10a response (VUAA1-normalized response), VOC concentration 100 μM
Experimental endpoint: activation at 100 µM (%)

# Compound, Test value
records = [
    ("CC(=O)OCCC(C)C [isopentyl acetate]", 10),
    ("CCCCCC(=O)OCC [ethyl hexanoate]", 8.51),
    ("CCCCOC(C)=O [butyl acetate]", 0),
    ("Cc1ccc(O)cc1 [4-methylphenol]", 6.62),
    ("CCCC(=O)OCC [ethyl butyrate]", 0),
    ("CC1=CCC2CC1C2(C)C (stereo not drawn) [alpha-pinene]", 7.44),
    ("C=CCc1ccc(O)c(OC)c1 [eugenol]", 0),
    ("C=C1CC/C=C(\\C)CC[C@@H]2[C@@H]1CC2(C)C [(-)-trans-caryophyllene]", 6.61),
    ("CCCCCO [1-pentanol]", 0),
    ("CC1=CCC2C(C1)C2(C)C (stereo not shown) [3-carene]", 0),
    ("CCCCC(C)=O [2-hexanone]", 0),
    ("CCCCCC(C)O (stereo not shown) [2-heptanol]", 0),
    ("CCCC(O)CC (stereo not shown) [3-hexanol]", 6),
    ("CC1=CC[C@@H](C(C)(C)O)CC1 [alpha-terpineol]", 0),
    ("C=CC(O)CCCCC (stereo not shown) [1-octen-3-ol]", 0),
    ("CCCCCC(=O)CC [3-octanone]", 0),
]

----------
Collected activation at 10 µM values appear next to each entry.
# Measured target: Drosophila OR13a (Drosophila melanogaster, UniProt Q9VXL0)
# Construct: expressed in transfected cells
# Sequence (Q9VXL0 1-418): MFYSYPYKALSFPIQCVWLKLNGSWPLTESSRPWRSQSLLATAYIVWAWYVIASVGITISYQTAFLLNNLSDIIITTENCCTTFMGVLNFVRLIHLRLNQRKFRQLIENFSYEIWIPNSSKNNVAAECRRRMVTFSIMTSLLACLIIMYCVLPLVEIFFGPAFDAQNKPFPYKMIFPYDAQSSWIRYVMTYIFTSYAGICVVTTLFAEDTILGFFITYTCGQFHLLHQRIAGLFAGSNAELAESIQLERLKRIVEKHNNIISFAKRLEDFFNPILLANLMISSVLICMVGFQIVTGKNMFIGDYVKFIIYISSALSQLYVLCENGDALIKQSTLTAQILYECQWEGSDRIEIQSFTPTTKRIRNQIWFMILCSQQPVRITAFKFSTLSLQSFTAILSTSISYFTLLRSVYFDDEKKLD
# Sequence (Q9VNB5 1-486 partner): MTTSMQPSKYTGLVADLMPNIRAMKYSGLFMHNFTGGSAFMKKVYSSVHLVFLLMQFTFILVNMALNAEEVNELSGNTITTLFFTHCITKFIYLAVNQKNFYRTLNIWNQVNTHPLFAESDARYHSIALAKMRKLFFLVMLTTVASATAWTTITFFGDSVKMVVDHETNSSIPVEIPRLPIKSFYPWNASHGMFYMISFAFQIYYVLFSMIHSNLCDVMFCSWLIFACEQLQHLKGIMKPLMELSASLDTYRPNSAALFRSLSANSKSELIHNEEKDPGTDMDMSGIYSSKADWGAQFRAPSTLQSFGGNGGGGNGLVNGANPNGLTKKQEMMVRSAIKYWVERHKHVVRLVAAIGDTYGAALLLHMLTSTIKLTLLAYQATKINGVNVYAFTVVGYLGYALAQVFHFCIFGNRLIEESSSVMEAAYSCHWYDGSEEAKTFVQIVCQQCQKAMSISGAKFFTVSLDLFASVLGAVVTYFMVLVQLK
# Assay notes: Calcium ion fluorescence (GCaMP6) assay, OR13a stable HEK293 cell line
# Format: cell-based
# Applied conditions: HEK293, read-out: OR13a Average response (VUAA1-normalized), 10 μM VOC; 50 μM VUAA1 = 1; responses not exceeding 0.05 considered 0
# Procedure: These VUAA1 normalized ∆F values were used to compare the different receptors and ligands. The concentration-dependent effect of the reference ligands on their cognate cell lines was examined in more detail. Twelve different ligand concentrations were measured on each cell line in an overall 0.01 μM to 100 μM concentration range with 5 repetitions with three technical replicates each time. […]

# Compound, activation at 10 µM / %
measured = [
    ("CCOC(=O)c1ccccc1 [ethyl benzoate]", 2.64),
    ("CCCCCCCCCC=O", 0),
    ("CCCC(=O)OCC [ethyl butyrate]", 0),
    ("Cc1ccc(C(C)C)cc1", 0),
    ("Cc1ccc(O)cc1", 2),
    ("CC1=CCC23CC1C(C)(C)C2CCC3C (stereo not shown)", 0),
    ("C=C1CC/C=C(\\C)CC[C@@H]2[C@@H]1CC2(C)C [(-)-trans-caryophyllene]", 11),
    ("CCCCCC(C)=O", 2.36),
    ("Cc1ccc(C)cc1", 0),
    ("Cc1cccc(C)c1", 0),
    ("CCCCOC(C)=O [butyl acetate]", 0),
    ("CCCCCCCCCCC", 0),
    ("CC1=CC[C@@H](C(C)(C)O)CC1", 0),
    ("C=CC(O)CCCCC (stereo not shown)", 41),
    ("CCCCCCCCC(CO)CCCCCC (stereo not shown)", 0),
    ("Cc1ccccc1C", 0),
    ("CCCCC(C)O (stereo not shown)", 0),
    ("CCCCCCCCC=O", 0),
    ("Cc1cccc(O)c1", 0),
    ("CC1=CCC2C(C1)C2(C)C (stereo not shown)", 0),
    ("C=CCc1ccc(O)c(OC)c1", 0),
    ("C=CC(O)C/C=C\\CC (stereo not shown)", 15),
    ("C=C1CCC2CC1C2(C)C (stereo not shown)", 0),
    ("O=Cc1ccccc1", 8),
    ("CCOC(=O)CC [ethyl propionate]", 0),
    ("CCCCCC(=O)CC", 0),
    ("CCCCOC(=O)CC [butyl propanoate]", 0),
    ("C=C1CC[C@H]2O[C@]2(C)CC[C@@H]2[C@@H]1CC2(C)C [(-)-caryophyllene oxide]", 0),
    ("CC(=O)c1ccccc1", 0),
    ("Cc1ccc(C)c(C)c1", 0),
    ("CCCCC(C)=O", 0),
    ("CCCCCCCO", 15),
    ("CCCCCC(C)O (stereo not shown)", 0),
    ("CCCCCCCCCCCCCC", 1.68),
    ("CC/C=C\\CCOC(C)=O [z3-hexenyl acetate]", 2.61),
    ("CCCCCC(=O)OCC [ethyl hexanoate]", 2.46),
    ("COC(=O)c1ccccc1 [methyl benzoate]", 0),
    ("CC1=CCC2CC1C2(C)C (stereo not shown)", 0),
    ("CCCCCC(O)CC (stereo not shown)", 0),
    ("CC(=O)OCC(C)C [isobutyl acetate]", 7),
    ("OCCc1ccccc1", 6),
    ("C=C1CCC2(C(C)C)CC12 (stereo not shown)", 0),
    ("CCCOC(C)=O [propyl acetate]", 0),
    ("COc1cccc(OC)c1", 0),
    ("CCCCCO", 1.6),
    ("CCCC(O)CC (stereo not shown)", 4.43),
    ("C=CC(C)(O)CCC=C(C)C (stereo not shown)", 4.47),
    ("CC(=O)OCCC(C)C [isopentyl acetate]", 4),
    ("COC(=O)c1ccccc1O [methyl salicylate]", 1),
]
